Assay: Plasma pharmacokinetics of BI 187004 after single oral doses (LC–MS/MS)
Recorded conditions: male, human, plasma, po, 240 mg, BI 187004 plasma concentrations, Min, 240 mg single oral, planned time 48 h
Property label: concentration at 48 h (nM)
Numbers only, in nM.

Measured concentration at 48 h of N#Cc1ccc2c(c1)[C@H]1CCCN(C(=O)c3ccc4[nH]cnc4c3)[C@H]1C2 : 255

* * *

Assay: Plasma pharmacokinetics of BI 187004 after single oral doses (LC–MS/MS)
Recorded conditions: male, human, plasma, po, 10 mg, Plasma concentration Mean, 10 mg single oral; 12 h
Property label: concentration at 12 h (nM)
One number for each entry, in nM.

Measured concentration at 12 h of N#Cc1ccc2c(c1)[C@H]1CCCN(C(=O)c3ccc4[nH]cnc4c3)[C@H]1C2 [BI 187004] : 146
